biological target: HCMV C-A (Human cytomegalovirus, UniProt P16753, A143V/A209V/C138A/C202A/C84A/C87A); assay: biochemical
pKi: −log10 of the molar value.

| RECORD_SMILES | pKi |
| --- | --- |
| O=C(CCl)Cn1nnc(-c2ccccc2)c1COC(=O)NCCCN1CCCC1=O | 4.68 |
| COCCNC(=O)OCc1c(-c2ccccc2)nnn1CC(=O)CCl | 4.54 |
| O=C(CCl)Cn1nnc(-c2ccccc2)c1COC(=O)N1CCOCC1 | 4.59 |
| O=C(CCl)Cn1nnc(-c2ccccc2)c1COC(=O)NCc1ccccc1 | 5.05 |
| O=C(CCl)Cn1cc(-c2ccccc2)nn1 | 4.42 |

----------
Target: WT HCMV Pr (Human cytomegalovirus, UniProt P16753, A143V/A209V)
Sequence (P16753 1-256 A143V/A209V): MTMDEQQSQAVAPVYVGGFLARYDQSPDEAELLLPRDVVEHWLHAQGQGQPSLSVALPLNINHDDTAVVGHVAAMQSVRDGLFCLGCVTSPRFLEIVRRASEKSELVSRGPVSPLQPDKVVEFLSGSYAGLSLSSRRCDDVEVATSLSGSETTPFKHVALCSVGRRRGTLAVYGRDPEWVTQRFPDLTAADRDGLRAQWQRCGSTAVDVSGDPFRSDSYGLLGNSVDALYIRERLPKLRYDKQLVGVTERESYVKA
Assay: biochemical
Assay type: biochemical
Settings: read-out: IC50 WT HCMV Pr; one hour incubation
pIC50: −log10 of the molar value.

| COMPOUND | pIC50 |
| --- | --- |
| C#CCNC(=O)OCc1c(-c2ccccc2)nnn1CC(=O)CCl [Compound 48] | 5.10 |

----------
molecular target: HCMV C-A (Human cytomegalovirus, UniProt P16753, A143V/A209V/C138A/C202A/C84A/C87A); conditions: 0.693 divided by kinact
Entries annotated with measured t1/2 HCMV C-A
READOUT_LABEL: t1/2 HCMV C-A (min)

| RECORD_SMILES | READING |
| --- | --- |
| COCCNC(=O)OCc1c(-c2ccccc2)nnn1CC(=O)CCl | 31 |
| O=C(CCl)Cn1nnc(-c2ccccc2)c1COC(=O)NCc1ccccc1 | 29 |
| O=C(CCl)Cn1nnc(-c2ccccc2)c1COC(=O)N1CCOCC1 | 35 |
| O=C(CCl)Cn1nnc(-c2ccccc2)c1COC(=O)NCCCN1CCCC1=O | 44 |
| O=C(CCl)Cn1cc(-c2ccccc2)nn1 | 26 |

----------
Entries annotated with measured IC50
molecular target: WT HCMV Pr (Human cytomegalovirus, UniProt P16753, A143V/A209V); assay: biochemical; type: biochemical

| RECORD_SMILES | RESULT_UNITS | IC50 |
| --- | --- | --- |
| CN(C)C(=O)OCc1c(-c2ccccc2)nnn1CC(=O)CCl | µM | 33 |
| CC(=O)Nc1cccc(-c2cn(CC(=O)CCl)nn2)c1 | µM | 18 |
| O=C(CCl)Cn1cc(-c2ccc(Br)cc2)nn1 | µM | 5 |
| CNC(=O)OCc1c(-c2ccccc2)nnn1CC(=O)CCl | µM | 68 |
| N#Cc1ccc(-c2cn(CC(=O)CCl)nn2)cc1 | µM | 11 |
| O=C(CCl)Cn1cc(-c2ccc(Cl)cc2)nn1 | µM | 5 |
| O=C(CCl)Cn1nnc(-c2ccccc2)c1COC(=O)NCc1ccccc1 | µM | 4 |
| O=C(CCl)Cn1cc(-c2cccc(Cl)c2)nn1 | µM | 6 |
| O=C(CCl)Cn1cc(-c2ccccc2)nn1 | µM | 33 |
| O=C(CCl)Cn1nnc(-c2ccccc2)c1COC(=O)N1CCOCC1 | µM | 53 |
| COCCNC(=O)OCc1c(-c2ccccc2)nnn1CC(=O)CCl | µM | 13 |
| O=C(CCl)Cn1cc(-c2ccc([N+](=O)[O-])cc2)nn1 | µM | 6 |

Every entry's value here was drawn from paper PMC9133232.
